Target: T1, murine CD22 protein (ACROBiosystems, SI2-M52Ha) (murine, UniProt P35329 22-708)
T1 construct: extracellular domain; also called murine CD22-ECD; murine CD22-ECD-His
T1 sequence (looked up): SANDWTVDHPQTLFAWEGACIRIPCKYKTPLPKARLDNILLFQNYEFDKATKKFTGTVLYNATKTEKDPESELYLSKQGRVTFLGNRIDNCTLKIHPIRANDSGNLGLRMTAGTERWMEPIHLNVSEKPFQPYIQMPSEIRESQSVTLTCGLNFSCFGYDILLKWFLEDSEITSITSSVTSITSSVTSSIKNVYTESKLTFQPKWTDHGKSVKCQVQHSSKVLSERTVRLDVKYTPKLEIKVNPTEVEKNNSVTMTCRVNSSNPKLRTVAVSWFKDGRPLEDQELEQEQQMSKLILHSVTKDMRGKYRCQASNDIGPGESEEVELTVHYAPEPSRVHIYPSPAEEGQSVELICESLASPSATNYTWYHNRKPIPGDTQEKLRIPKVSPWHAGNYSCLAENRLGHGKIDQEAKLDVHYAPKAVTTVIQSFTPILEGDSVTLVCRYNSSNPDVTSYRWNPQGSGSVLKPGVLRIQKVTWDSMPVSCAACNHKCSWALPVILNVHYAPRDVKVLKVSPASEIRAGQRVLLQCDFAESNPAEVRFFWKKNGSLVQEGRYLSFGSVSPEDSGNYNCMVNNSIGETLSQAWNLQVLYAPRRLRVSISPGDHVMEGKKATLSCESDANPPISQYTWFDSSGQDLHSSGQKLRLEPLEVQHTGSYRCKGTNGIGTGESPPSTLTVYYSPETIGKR
Experiment: ELISA, coated murine CD22, 0.001 nM Ab
List of OD450 values.
Give the value; after it, write the unit.

Take a look at these entries with their results.
# binder F2.173.9 human-murine chimeric antibody (antibody, human IgG1, lambda, V domains shown, Chimeric, human IgG1 / lambda) VH: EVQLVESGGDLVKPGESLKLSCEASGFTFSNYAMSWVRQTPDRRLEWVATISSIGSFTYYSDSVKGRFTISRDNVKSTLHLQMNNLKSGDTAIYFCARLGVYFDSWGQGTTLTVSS VL: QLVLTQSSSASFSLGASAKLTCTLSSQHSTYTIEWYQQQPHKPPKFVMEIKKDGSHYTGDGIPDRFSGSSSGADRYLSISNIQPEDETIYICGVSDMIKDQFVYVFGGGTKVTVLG ; its OD450 = 0.05 OD450

Reported OD450 for F1.216.2 human-murine chimeric antibody (antibody, human IgG1, kappa, V domains shown, Chimeric, human IgG1 / kappa) VH: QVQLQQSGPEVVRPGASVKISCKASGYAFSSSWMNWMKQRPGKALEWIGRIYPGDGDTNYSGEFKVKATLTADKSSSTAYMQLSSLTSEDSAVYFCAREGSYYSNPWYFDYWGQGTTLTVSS VL: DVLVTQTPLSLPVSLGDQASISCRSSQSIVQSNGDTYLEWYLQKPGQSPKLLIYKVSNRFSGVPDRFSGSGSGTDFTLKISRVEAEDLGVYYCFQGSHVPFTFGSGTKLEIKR was 0.05 OD450

Short answer for F2.42.9 human-murine chimeric antibody (antibody, human IgG1, lambda, V domains shown, Chimeric, human IgG1 / lambda; VL tied by name) VH: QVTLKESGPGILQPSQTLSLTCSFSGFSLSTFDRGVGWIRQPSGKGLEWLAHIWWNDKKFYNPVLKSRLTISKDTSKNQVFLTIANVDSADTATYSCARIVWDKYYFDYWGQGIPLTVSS VL: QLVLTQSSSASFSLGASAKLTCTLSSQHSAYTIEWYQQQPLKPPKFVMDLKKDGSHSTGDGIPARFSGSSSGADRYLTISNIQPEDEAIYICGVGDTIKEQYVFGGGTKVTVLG : OD450 was 0.07 OD450

Documented OD450 of F2.180.16 human-murine chimeric antibody (antibody, human IgG1, lambda, V domains shown, Chimeric, human IgG1 / lambda) VH: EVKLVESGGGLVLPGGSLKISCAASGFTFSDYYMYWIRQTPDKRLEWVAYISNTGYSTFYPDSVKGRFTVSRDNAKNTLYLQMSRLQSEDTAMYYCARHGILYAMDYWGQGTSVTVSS VL: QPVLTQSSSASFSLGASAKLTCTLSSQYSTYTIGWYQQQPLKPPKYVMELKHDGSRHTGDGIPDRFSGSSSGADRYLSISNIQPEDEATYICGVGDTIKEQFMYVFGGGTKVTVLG : 0.05 OD450

Okay, next one:
OD450 reported for this binder F1.257.3 human-murine chimeric antibody (antibody, human IgG1, kappa, V domains shown, Chimeric, human IgG1 / kappa; VL tied by name) VH: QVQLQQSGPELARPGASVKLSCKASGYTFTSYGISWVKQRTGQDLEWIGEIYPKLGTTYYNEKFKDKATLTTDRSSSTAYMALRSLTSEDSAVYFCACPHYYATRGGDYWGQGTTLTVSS VL: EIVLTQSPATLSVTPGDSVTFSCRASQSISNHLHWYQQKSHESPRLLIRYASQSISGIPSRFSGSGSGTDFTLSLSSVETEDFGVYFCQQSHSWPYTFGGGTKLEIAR : 0.05 OD450
